Each recorded value in this set is attributed to ChEMBL document CHEMBL3885861.

Species on record: Rattus norvegicus
Test: Open TG-GATES - Regimen: Single
Format: toxicity, organism-based, Sprague-Dawley
Design: regimen Single, gender Male, age 6 weeks
Conditions: in vivo, po, 30 mg/kg, 24 h, tissue Plasma, route gavage, dose level Middle
quantity-name: TP (g/dL)
Report as a plain number; the unit g/dL is understood.

# compound, TP, g/dL
data = [
    ("CN(C)CCN(Cc1cccs1)c1ccccn1", 5.5),
]

Given CC1=C(/C=C/C(C)=C/C=C/C(C)=C/CO)C(C)(C)CCC1 [RETINOL] , respond with its TP.
5.6

Give the measured TP for CN(C)CCCN1c2ccccc2CCc2ccc(Cl)cc21 [CLOMIPRAMINE]
5.5

In one line, give reported TP of the entry CN(C)CCCN1c2ccccc2CCc2ccccc21 [IMIPRAMINE] .
5.6

* * *

APTT values by entry
Species: Rattus norvegicus
Experiment: Open TG-GATES - Regimen: Single
Type: toxicity, organism-based, Sprague-Dawley
Design: regimen Single, gender Male, age 6 weeks
Settings: in vivo, po, 10 mg/kg, 9 h, tissue Blood, route gavage, dose level Low

# molecular-string, APTT
measured = [
    ("CN(C)CCN(Cc1cccs1)c1ccccn1", "20.7 s"),
    ("CC1=C(/C=C/C(C)=C/C=C/C(C)=C/CO)C(C)(C)CCC1", "21.8 s"),
    ("CN(C)CCCN1c2ccccc2CCc2ccccc21", "16.4 s"),
]

API: the following record is the query input.
Assign APTT to the following record: CN(C)CCCN1c2ccccc2CCc2ccc(Cl)cc21
15.9 s

* * *

The reader will find reported LIVER values listed item by item below.
Organism: Rattus norvegicus
Experiment: Open TG-GATES - Regimen: Single
Type: toxicity, organism-based, Sprague-Dawley
Set-up: regimen Single, gender Male, age 6 weeks
Settings: in vivo, po, 1000 mg/kg, 9 h, tissue Liver, route gavage, dose level High
Answer in g, number only, no unit symbol.

Worked cases, answers included:
# compound, observed-value
data = [
    ("NC(N)=Nc1nc(CSCCC(N)=NS(N)(=O)=O)cs1", 8.6),
    ("CCOC(=O)CCC(=O)O[C@H]1[C@H](O[C@@H]2[C@@H](C)[C@H](O[C@H]3C[C@@](C)(OC)[C@@H](O)[C@H](C)O3)[C@@H](C)C(=O)O[C@H](CC)[C@@](C)(O)[C@H](O)[C@@H](C)C(=O)[C@H](C)C[C@@]2(C)O)O[C@H](C)C[C@@H]1N(C)C [ERYTHROMYCIN ETHYLSUCCINATE]", 8.5),
]

Specify LIVER for CC(C)OC(=O)C(C)(C)Oc1ccc(C(=O)c2ccc(Cl)cc2)cc1 [FENOFIBRATE] and stop.
6.9

Note down LIVER recorded for COc1ccc2[nH]c([S+]([O-])Cc3ncc(C)c(OC)c3C)nc2c1 (stereo not given)
9.6

Tell me its LIVER given COC1=CC(=O)C[C@@H](C)[C@]12Oc1c(Cl)c(OC)cc(OC)c1C2=O as the entry.
8.4

* * *

Species on record: Rattus norvegicus
Assay: Open TG-GATES - Regimen: Single
Assay type: toxicity, organism-based, Sprague-Dawley
Design: regimen Single, gender Male, age 6 weeks
Settings: in vivo, po, 300 mg/kg, 3 h, tissue Kidney, route gavage, dose level Middle
KIDNEY_TOTAL listing for selected compounds.
Numeric answer only, unit g assumed.

Answer with the recorded KIDNEY_TOTAL for the compound listed here: CCOC(=O)CCC(=O)O[C@H]1[C@H](O[C@@H]2[C@@H](C)[C@H](O[C@H]3C[C@@](C)(OC)[C@@H](O)[C@H](C)O3)[C@@H](C)C(=O)O[C@H](CC)[C@@](C)(O)[C@H](O)[C@@H](C)C(=O)[C@H](C)C[C@@]2(C)O)O[C@H](C)C[C@@H]1N(C)C [ERYTHROMYCIN ETHYLSUCCINATE]
2.1

Give the reported KIDNEY_TOTAL for this compound. COc1ccc2[nH]c([S+]([O-])Cc3ncc(C)c(OC)c3C)nc2c1 (centres undefined) [OMEPRAZOLE]
1.9

Answer with the recorded KIDNEY_TOTAL of COC1=CC(=O)C[C@@H](C)[C@]12Oc1c(Cl)c(OC)cc(OC)c1C2=O [GRISEOFULVIN] only.
1.9

Give the value of KIDNEY_TOTAL reported for the following: NC(N)=Nc1nc(CSCCC(N)=NS(N)(=O)=O)cs1 [FAMOTIDINE]
1.9
